- SYSTEM TESTED: BRAF V600E (Homo sapiens, UniProt P15056, V600E)
- Sequence (P15056 whole entry V600E): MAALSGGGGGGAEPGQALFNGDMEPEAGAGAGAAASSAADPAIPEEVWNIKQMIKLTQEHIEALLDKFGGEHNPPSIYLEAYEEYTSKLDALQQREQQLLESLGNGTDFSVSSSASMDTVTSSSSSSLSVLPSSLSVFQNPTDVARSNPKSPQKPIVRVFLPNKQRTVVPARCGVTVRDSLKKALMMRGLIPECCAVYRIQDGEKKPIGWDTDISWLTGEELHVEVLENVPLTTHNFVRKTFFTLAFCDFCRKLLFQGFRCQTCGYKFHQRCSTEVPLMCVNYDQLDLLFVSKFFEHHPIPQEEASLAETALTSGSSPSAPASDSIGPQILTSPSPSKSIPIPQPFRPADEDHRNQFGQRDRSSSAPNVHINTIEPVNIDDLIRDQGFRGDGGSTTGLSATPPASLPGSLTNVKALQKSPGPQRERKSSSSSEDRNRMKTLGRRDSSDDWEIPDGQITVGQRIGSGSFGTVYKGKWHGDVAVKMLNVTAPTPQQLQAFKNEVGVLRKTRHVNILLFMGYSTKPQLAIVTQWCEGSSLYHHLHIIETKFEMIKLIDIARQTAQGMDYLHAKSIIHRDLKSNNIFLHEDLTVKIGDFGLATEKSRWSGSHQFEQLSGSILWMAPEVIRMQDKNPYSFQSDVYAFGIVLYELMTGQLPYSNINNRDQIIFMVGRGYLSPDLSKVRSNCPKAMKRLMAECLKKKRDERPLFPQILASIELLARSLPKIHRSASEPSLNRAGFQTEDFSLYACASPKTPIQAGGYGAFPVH
- TEST NAME: HiBiT cellular BRAF^V600E degradation assay
- Type: cell-based
- DETAILS: A375.10 cells, 24 h; residual protein remaining in the cell; read-out: HiBit 24 h Emax
Below, each of the compounds is paired with its reported Emax value.
Respond numerically; units are % and should not be typed.

>  <COMPOUND>
CCN(C)S(=O)(=O)Nc1ccc(F)c(Oc2ccc3ncn([C@H]4COC5(CCN(C(=O)C[C@H]6CC[C@H](c7ccc8c(C9CCC(=O)NC9=O)nn(C)c8c7)CC6)CC5)C4)c(=O)c3c2)c1C#N (single isomer, unassigned)

>  <MEASUREMENT NAME>
Emax

>  <REPORTED>
31.5

$$$$

Lab note: next compound to report on.
Exercise: Name the recorded Emax of the item "Cn1nc(N2CCC(=O)NC2=O)c2cc(F)c(N3CCC(O)(CC(=O)N4CCC5(CC4)C[C@@H](n4cnc6ccc(Oc7c(F)ccc(NS(=O)(=O)C8CCCC8)c7C#N)cc6c4=O)CO5)CC3)cc21" in your answer.
Solution: 26.8
